Attribution: patent US10670605B2

Target: DCUN1D1 C115 (Q96GG9) (Homo sapiens)
Sequence (Q96GG9 whole entry): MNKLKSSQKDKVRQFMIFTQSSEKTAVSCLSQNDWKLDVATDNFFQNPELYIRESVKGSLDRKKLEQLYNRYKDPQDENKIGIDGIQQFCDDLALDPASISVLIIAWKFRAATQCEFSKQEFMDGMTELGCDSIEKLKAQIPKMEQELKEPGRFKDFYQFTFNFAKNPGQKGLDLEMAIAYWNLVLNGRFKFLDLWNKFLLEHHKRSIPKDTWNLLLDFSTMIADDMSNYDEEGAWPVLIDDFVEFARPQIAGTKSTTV
Test: Competitive isoTOP-ABPP, cell lysates
Assay type: binding
Settings: 500 μm, in-vitro_ramos
readout-label: isoTOP-ABPP reactivity ratio, Q96GG9_C115
// response body must contain only the number

INPUT: Name the recorded isoTOP-ABPP reactivity ratio, Q96GG9_C115 for CCN(CC)c1ccc(S(N)(=O)=O)cc1NC(=O)CCl [compound 30] .
OUTPUT: 1.1

INPUT: Please give the result for C=CC(=O)Nc1cc(C)c(Br)cc1C [compound 40] too.
OUTPUT: 0.9

INPUT: Let us now turn to CC(C)(C)c1cc(NC(=O)CCl)on1 [compound 32]
OUTPUT: 0.9

INPUT: Proceed to C=CC(=O)Nc1cc(F)c(N2CCN(C(=O)OC(C)(C)C)CC2)c(F)c1 [compound 38]
OUTPUT: 1.0

INPUT: Moving on to C=CC(=O)N(Cc1cccnc1)c1cc(C(F)(F)F)cc(C(F)(F)F)c1 [compound 31]
OUTPUT: 0.9

INPUT: Quick one: C=CC(=O)N1CCC(c2noc3ccc(F)cc23)CC1 [compound 37]
OUTPUT: 0.8

INPUT: Can you check O=C(CCl)Nc1ccccc1C1CCCCCC1 [compound 35] next?
OUTPUT: 0.9

----------
Target: IDH1 C269 (O75874) (Homo sapiens, UniProt O75874)
Sequence (O75874 whole entry): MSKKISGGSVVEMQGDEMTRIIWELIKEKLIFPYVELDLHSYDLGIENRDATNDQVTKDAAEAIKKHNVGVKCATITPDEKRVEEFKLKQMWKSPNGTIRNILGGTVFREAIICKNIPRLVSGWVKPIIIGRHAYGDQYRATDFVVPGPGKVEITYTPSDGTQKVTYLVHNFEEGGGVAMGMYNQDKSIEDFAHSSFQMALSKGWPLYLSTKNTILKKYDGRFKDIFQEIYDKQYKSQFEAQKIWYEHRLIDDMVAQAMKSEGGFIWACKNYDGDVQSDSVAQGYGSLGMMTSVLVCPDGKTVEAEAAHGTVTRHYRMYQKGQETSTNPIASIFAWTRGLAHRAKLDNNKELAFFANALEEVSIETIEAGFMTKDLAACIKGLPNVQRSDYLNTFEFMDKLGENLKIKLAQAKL
Test: Competitive isoTOP-ABPP, cell lysates
Format: binding
Conditions: 500 μm in-vitro ramos
readout-label: isoTOP-ABPP ratio (reactivity profile), O75874_C269
Give a plain numeric answer without units written out.

INPUT: I have this compound here, `N#C/C(=C\c1cc(C(F)(F)F)cc(C(F)(F)F)c1)C(N)=O` , and I need its recorded isoTOP-ABPP ratio (reactivity profile), O75874_C269.
OUTPUT: 1.1

INPUT: Further, for `CCN(CC)c1ccc(S(N)(=O)=O)cc1NC(=O)CCl` ?
OUTPUT: 0.7

INPUT: What about this compound? `O=C(CCl)N1CCC(C(O)(c2ccccc2)c2ccccc2)CC1`
OUTPUT: 0.6

INPUT: Could you do the same for `C=CC(=O)N(Cc1cccnc1)c1ccc(Oc2ccccc2)c(C(F)(F)F)c1` , please?
OUTPUT: 0.6

INPUT: What about this compound? CC(Br)C(=O)Nc1cc(C(F)(F)F)cc(C(F)(F)F)c1 (centres unmarked)
OUTPUT: 0.9

----------
Field: isoTOP-ABPP ratio P24752_C413. Provide a value for each of the compounds that follow.
Target: cysteines in MDA-MB-231 and Ramos cells (Homo sapiens)
Sequence (P24752 34-427): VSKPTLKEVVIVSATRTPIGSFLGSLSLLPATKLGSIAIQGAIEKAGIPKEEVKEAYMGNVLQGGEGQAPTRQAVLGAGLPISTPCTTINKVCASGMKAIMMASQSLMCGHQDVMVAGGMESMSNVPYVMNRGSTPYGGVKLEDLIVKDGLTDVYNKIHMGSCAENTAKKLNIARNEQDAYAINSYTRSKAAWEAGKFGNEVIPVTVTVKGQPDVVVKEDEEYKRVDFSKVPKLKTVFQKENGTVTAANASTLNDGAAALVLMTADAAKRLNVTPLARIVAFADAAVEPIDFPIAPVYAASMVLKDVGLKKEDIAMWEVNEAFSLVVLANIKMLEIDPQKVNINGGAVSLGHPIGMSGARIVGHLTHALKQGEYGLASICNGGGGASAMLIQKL
Test: Competitive isoTOP-ABPP in situ (fragment-treated cells)
Format: cell-based
Conditions: 200 μM, insitu, 231
Give your answer as a number; write no unit.

INPUT: Entry O=C(CCl)NCCc1c[nH]c2ccccc12 [compound 13] : reported isoTOP-ABPP ratio P24752_C413 = ?
OUTPUT: 3.5

INPUT: Same again, this time with C=CC(=O)N(Cc1cccnc1)c1cc(C(F)(F)F)cc(C(F)(F)F)c1 [compound 31]
OUTPUT: 1.0

INPUT: Another compound: Cc1ccc(C=C(C#N)C(=O)NCCN2CCOCC2)cc1 [compound 41]
OUTPUT: 0.9

INPUT: Also O=C(CCl)N1CCN(S(=O)(=O)c2ccccc2F)CC1 [compound 10] ?
OUTPUT: 7.8

INPUT: Try O=C(CCl)NC12CC3CC(CC(C3)C1)C2 [compound 21] next.
OUTPUT: 1.5

INPUT: Same read-out for O=C(CCl)Nc1cccc2ncccc12 [compound 51] ?
OUTPUT: 1.1

INPUT: And for O=C(CCl)NC(=O)NC12CC3CC(CC(C3)C1)C2 [compound 12] ?
OUTPUT: 9.9

INPUT: Same for C=CC(=O)Nc1cc(F)c(N2CCN(C(=O)OC(C)(C)C)CC2)c(F)c1 [compound 38]
OUTPUT: 1.1

INPUT: Try this compound next: COc1ccccc1OCCNC(=O)CCl [compound 28]
OUTPUT: 1.0

INPUT: Field entry: CC1CCc2ccccc2N1C(=O)CCl (centres unmarked) [compound 45]
OUTPUT: 20.0

INPUT: Entry CC(C)CCOCCNC(=O)CCl [compound 27] please
OUTPUT: 1.9
